The origin of these recorded values is PubChem BioAssay (NCI).

Assay: NCI Yeast Anticancer Drug Screen. Data for the sgs1 mgt1 strain (AID 161);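 note: 0% = growth of cultures given vehicle only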
Conditions: S. cerevisiae sgs1 mgt1 strain, at 50.0 µM
Compounds without any hit were thinned out: in the full panel of roughly 79,000, 15% have a hit. Calls of active or inactive are those of the source. Cut-off read from the data, not from the text of the source: active = growth inhibition above about 70%; inactive = the rest.
Possible outcomes: active, inactive

[
  {
    "compound": "CCCc1cc(C(=O)N/N=C/c2ccc([N+](=O)[O-])cc2)c2ccccc2n1",
    "assigned-category": "inactive"
  },
  {
    "compound": "Fc1ccccc1-c1nc2ccccc2s1",
    "assigned-category": "inactive"
  },
  {
    "compound": "CCC1=C(C)C(=O)OC1n1ccc(=O)[nH]c1=O (stereo not given)",
    "assigned-category": "inactive"
  },
  {
    "compound": "COc1cc([C@H]2CC(=O)C[C@H](c3cc(OC)c(OC)c(OC)c3)C23C(=O)c2ccccc2C3=O)cc(OC)c1OC",
    "assigned-category": "inactive"
  },
  {
    "compound": "CCCCCC1(C=O)C(=O)NC(=O)N1C (stereo not given)",
    "assigned-category": "inactive"
  },
  {
    "compound": "CC(=O)OC(C)c1cc2c(s1)C(=O)c1scc(C(C)OC(C)=O)c1C2=O (stereo not given)",
    "assigned-category": "active"
  },
  {
    "compound": "c1scc2c1COCCOCCOCCOCCOCCOCCOC2",
    "assigned-category": "inactive"
  },
  {
    "compound": "N#C/C(=C1\\OC(=O)C(c2ccc(Br)cc2)=C1O)c1ccc(Br)cc1",
    "assigned-category": "inactive"
  },
  {
    "compound": "CS(=O)(=O)Nc1ccc(C(=O)CCN2CCCCCC2)cc1",
    "assigned-category": "inactive"
  },
  {
    "compound": "Cc1c(C(=O)O)[nH]c(=O)[nH]c1=O",
    "assigned-category": "inactive"
  },
  {
    "compound": "CCC(C)(C)C1CCCCC1OC(C)=O (stereo not given)",
    "assigned-category": "inactive"
  },
  {
    "compound": "CC[N+](C)(CC)CCNc1cc2c(c3c(=O)c4ccccc4sc13)CCCC2",
    "assigned-category": "active"
  },
  {
    "compound": "Nc1ccccc1CCO",
    "assigned-category": "inactive"
  },
  {
    "compound": "Cc1cc(C)c(NC(N)=S)cc1C",
    "assigned-category": "inactive"
  },
  {
    "compound": "CC(Nc1ncccn1)Nc1ncccn1",
    "assigned-category": "inactive"
  },
  {
    "compound": "CC(C)C1NC(=O)NC1=O (stereo not given)",
    "assigned-category": "inactive"
  },
  {
    "compound": "CC(=O)NC(=O)CCc1ccccc1",
    "assigned-category": "inactive"
  },
  {
    "compound": "O=S(Cc1cc2c(cc1Br)OCO2)c1ccccc1 (stereo not given)",
    "assigned-category": "inactive"
  },
  {
    "compound": "O=C1CN(/N=C/c2ccc(-c3ccc(F)cc3)o2)C(=O)N1",
    "assigned-category": "inactive"
  },
  {
    "compound": "O=C1c2ccsc2C(=O)c2sc(CO)cc21",
    "assigned-category": "active"
  }
]

----------
Test: NCI Yeast Anticancer Drug Screen. Data for the bub3 strain (AID 167)
Conditions: S. cerevisiae bub3 mutant strain, at 50.0 µM, hits give high values
The panel holds about 79,000 compounds, 15% with a hit somewhere; the sample as a whole holds those more often.
measurement-name: growth inhibition (%)

[
  {
    "molecule": "c1ccc(Cc2ccc3ccccc3c2)cc1",
    "measurement-name": "growth inhibition",
    "unit-tag": "%",
    "observed": 12.2
  },
  {
    "molecule": "C=C(C)C(O)CC (centres undefined)",
    "measurement-name": "growth inhibition",
    "unit-tag": "%",
    "observed": 10.9
  },
  {
    "molecule": "Cc1ccccc1C(OCCN(C)C)c1ccccc1 (centres undefined)",
    "measurement-name": "growth inhibition",
    "unit-tag": "%",
    "observed": -39
  },
  {
    "molecule": "NC(=O)Nc1nc(-c2ccccc2)no1",
    "measurement-name": "growth inhibition",
    "unit-tag": "%",
    "observed": -6.75
  },
  {
    "molecule": "O=CNC(Cc1ccccc1)c1ccc(OCc2ccccc2)cc1 (centres undefined)",
    "measurement-name": "growth inhibition",
    "unit-tag": "%",
    "observed": 31.6
  },
  {
    "molecule": "CCCCC(CC)(SC(CC)C(N)=O)C(N)=O (centres undefined)",
    "measurement-name": "growth inhibition",
    "unit-tag": "%",
    "observed": 5.75
  },
  {
    "molecule": "CCOC(=O)/C=C/C(=O)N1CCN(C(=O)/C=C/C(=O)OCC)C(C)C1 (centres undefined)",
    "measurement-name": "growth inhibition",
    "unit-tag": "%",
    "observed": -41.5
  },
  {
    "molecule": "Cc1ccc2c(Nc3ccc(NS(C)(=O)=O)cc3C)c3ccccc3nc2c1",
    "measurement-name": "growth inhibition",
    "unit-tag": "%",
    "observed": 4.25
  },
  {
    "molecule": "O=C(NCC1CC1)NC(=O)c1c(F)cccc1Cl",
    "measurement-name": "growth inhibition",
    "unit-tag": "%",
    "observed": 36.6
  },
  {
    "molecule": "Cn1cnc2c(=S)nc[nH]c21",
    "measurement-name": "growth inhibition",
    "unit-tag": "%",
    "observed": -8.75
  },
  {
    "molecule": "CCOC(=O)CNC(=O)C(Cc1ccccc1)NC(=O)CNC(=O)OCc1ccccc1 (centres undefined)",
    "measurement-name": "growth inhibition",
    "unit-tag": "%",
    "observed": 0.75
  },
  {
    "molecule": "O=C(NCC(CC(NC(=O)c1ccccc1)C(=O)O)NC(=O)c1ccccc1)c1ccccc1 (centres undefined)",
    "measurement-name": "growth inhibition",
    "unit-tag": "%",
    "observed": -5.9
  },
  {
    "molecule": "COC(C)CCOC(=O)c1cccc(C)c1 (centres undefined)",
    "measurement-name": "growth inhibition",
    "unit-tag": "%",
    "observed": 24.8
  },
  {
    "molecule": "CCCCCCC1(/C=C\\c2ccccc2Cl)OCCO1",
    "measurement-name": "growth inhibition",
    "unit-tag": "%",
    "observed": 16.9
  },
  {
    "molecule": "Cc1ccc(S(=O)(=O)N/N=C(\\C(=O)c2ccccc2)c2ccccc2)cc1",
    "measurement-name": "growth inhibition",
    "unit-tag": "%",
    "observed": 23.6
  },
  {
    "molecule": "CC1(C)OC(=O)N=C1c1ccc(Br)cc1",
    "measurement-name": "growth inhibition",
    "unit-tag": "%",
    "observed": -22
  },
  {
    "molecule": "C=C(C)COc1ccc(-c2ccccc2)cc1",
    "measurement-name": "growth inhibition",
    "unit-tag": "%",
    "observed": -3.85
  },
  {
    "molecule": "C[CH2][Sn]([CH2]C)([O]P(=O)(C[Si](C)(C)C)c1ccccc1)[O]P(=O)(C[Si](C)(C)C)c1ccccc1 (centres undefined)",
    "measurement-name": "growth inhibition",
    "unit-tag": "%",
    "observed": 53.2
  },
  {
    "molecule": "CSc1ccccc1N1C(=O)CSC1=S",
    "measurement-name": "growth inhibition",
    "unit-tag": "%",
    "observed": -4.1
  },
  {
    "molecule": "CN(C)CCNC(=O)c1cccc(N(C)C(=O)c2ccccc2)c1[N+](=O)[O-]",
    "measurement-name": "growth inhibition",
    "unit-tag": "%",
    "observed": 7.05
  },
  {
    "molecule": "CSc1cc2c(cc1NC(C)=O)Cc1ccccc1-2",
    "measurement-name": "growth inhibition",
    "unit-tag": "%",
    "observed": 9.15
  },
  {
    "molecule": "O=C1NC(=O)c2ccccc2/C1=C/c1ccc2c(c1)OCO2",
    "measurement-name": "growth inhibition",
    "unit-tag": "%",
    "observed": -2.6
  },
  {
    "molecule": "CCOC(=O)C(=[N+]=[N-])C(=O)CN1C(=O)c2ccccc2C1=O",
    "measurement-name": "growth inhibition",
    "unit-tag": "%",
    "observed": 5.9
  },
  {
    "molecule": "CC1(C)CCC[C@@]2(C)C1C[C@H](O)[C@@]1(C)O[C@@](C)([C@H](O)CO)CCC21 (some centres undefined)",
    "measurement-name": "growth inhibition",
    "unit-tag": "%",
    "observed": 29.2
  }
]
